Origin of measurements: patent US10035790B2

# target_under_test: ligand binding domain of human RORγ (A262-S507) (Homo sapiens, UniProt P51449)
# Construct: made in house; host or cells: E. coli
# Sequence (P51449 262-507): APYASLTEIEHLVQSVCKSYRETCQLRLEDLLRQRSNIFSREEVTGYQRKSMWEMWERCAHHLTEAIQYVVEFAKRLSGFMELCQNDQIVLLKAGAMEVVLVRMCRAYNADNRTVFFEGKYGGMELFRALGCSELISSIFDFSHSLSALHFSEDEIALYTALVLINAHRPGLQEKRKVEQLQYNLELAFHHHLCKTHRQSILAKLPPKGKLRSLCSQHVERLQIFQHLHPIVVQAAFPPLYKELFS
# test_summary: General RORγ SPA binding assay (competition with [3H]25-hydroxycholesterol)
# condition_notes: RORγ SPA binding assay, inhibition of [3H]25-hydroxycholesterol binding; read-out: IC50
test_readout: IC50 (nM)
Give the number; nM is assumed, so skip it.

Past entries and their recorded results:
CC(=O)NCC(O)(COc1cccc(C(F)(F)F)n1)c1cnc(C)nc1C1CCN(C(=O)Nc2c(F)cccc2F)CC1 (centres unmarked)
36.9
Cc1nc(C)c(-c2nc(-c3ccc(F)cc3)no2)c(C2CCN(C(=O)Cc3c(F)cccc3F)CC2)n1
337
Cc1nc(N)nc(C2CCN(C(=O)Oc3ccccc3Cl)CC2)c1-c1nnc(-c2ccnc(C(F)(F)F)n2)o1
10.5
Cc1cc(C)cc(OCC(C)(F)c2cnc(C)nc2C2CCN(C(=O)Cc3c(F)cccc3F)CC2)c1 (centres unmarked)
28
Cc1nc(C2CCN(C(=O)Cc3c(F)cccc3F)CC2)c(C(=O)NCc2cccc(C(F)(F)F)n2)c(=O)n1C
654

The molecule "Cc1nc(C)c(-c2nnc(-c3cc(Cl)ccn3)o2)c(C2CCN(C(=O)Cc3c(F)cccc3F)CC2)n1" showed IC50 equal to 3010

The molecule Cc1ncc(C(C)(F)CNc2ccnc(C(F)(F)F)n2)c(C2CCN(C(=O)Nc3c(F)cccc3F)CC2)n1 (centres unmarked) showed IC50 equal to 56.5

The molecule "Cc1cc(C)cc(CNC(=O)c2cnc(C)nc2C2CCN(C(=O)C(F)(F)c3ccccc3F)CC2)c1" showed IC50 equal to 51.6

The molecule Cc1ncc(C(=O)NC(C)c2cccc(Cl)c2)c(C2CCN(C(=O)Cc3c(F)cccc3F)CC2)n1 (centres unmarked) showed IC50 equal to 1120

The molecule CC(=O)Nc1ncc(C(C)(O)COc2cccc(C(F)(F)F)n2)c(C2CCN(C(=O)Nc3c(F)cccc3F)CC2)n1 (centres unmarked) showed IC50 equal to 13.9

----------
# target_under_test: ligand binding domain of human RORγ (A262-S507) (Homo sapiens, UniProt P51449)
# Construct: made in house; host or cells: E. coli
# Sequence (P51449 262-507): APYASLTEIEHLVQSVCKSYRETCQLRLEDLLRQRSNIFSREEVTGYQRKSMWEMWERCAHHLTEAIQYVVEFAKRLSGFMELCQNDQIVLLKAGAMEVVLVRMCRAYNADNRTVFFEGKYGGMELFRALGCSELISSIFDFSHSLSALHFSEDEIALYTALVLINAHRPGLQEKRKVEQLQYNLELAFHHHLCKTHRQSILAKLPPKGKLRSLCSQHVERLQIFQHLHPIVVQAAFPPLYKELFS
# test_summary: General RORγ SPA binding assay (competition with [3H]25-hydroxycholesterol)
# condition_notes: RORγ SPA binding assay, inhibition of [3H]25-hydroxycholesterol binding; read-out: IC50
# maps each entry to its pIC50
Please note pIC50 is a logarithmic value: minus log10 of concentration in mol/L. Answer with that number alone.

Past entries and their recorded results:
Cc1nc(C)c(-c2nnc(-c3ccnc(C(F)(F)F)n3)o2)c(C2CCN(C(=O)C(F)(F)c3c(F)cccc3F)CC2)n1
7.95
COc1ncc(C(=O)NCc2cccc(Cl)c2)c(C2CCN(C(=O)Cc3c(F)cccc3F)CC2)n1
8.00

The molecule "Cc1ncc(C(=O)COc2cccc(C(F)(F)F)n2)c(C2CCN(C(=O)Nc3c(F)cccc3F)CC2)n1" showed pIC50 equal to 8.19
